The values you see were collected from a flash point compilation (Sun et al. 2020).

value-kind: flash point (°C)

I = CCc1cccc(CC)c1 [m -diethylbenzene]
II = CC(C)CC(C)Cc1ccccc1 (stereo unspecified) [(2,4-dimethylpentyl)benzene]
Problem: Hi there! Just curious which has the higher flash point between I and II . State your choice using its label.
Solution: II

* * *

value-kind: flash point (°C)

Solved cases (3 shown):
[[record]]
compound = "C=C(C)CCCCC [2-methyl-1-heptene]"
value_kind = "flash point"
observed = 10

[[record]]
compound = "CCN1CCCCC1 [1-ethylpiperidine]"
value_kind = "flash point"
observed = 18

[[record]]
compound = "CCCCC(C)Br (configuration not stated) [2-bromohexane]"
value_kind = "flash point"
observed = 40


a = Cc1cccs1 [2-methylthiophene]
b = CC(C)C(=O)O [2-methylpropanoicacid]
c = C1=CC2CCC1C2 [2-norbornene]
Problem: Reorder the items by flash point, least to greatest. Please, when replying, give the labels in the order that was requested.
Solution: c, a, b
(c: -14 °C, a: 8 °C, b: 59 °C)

P = CC(C)c1ccccc1N [2-isopropylaniline]
Q = COC(=O)C(C)C [methyl2-methylpropanoate]
R = C#CCCCC#C [1,6-heptadiyne]
Problem: Could you please order the items by flash point, going from the lowest number to the highest? Answer format: the labels, in the requested order.
Solution: Q, R, P

1 = CCc1ccccc1O [2-ethylphenol]
2 = C[C@@H]1CC(=O)[C@@H](C)C1 (relative stereo) [trans-2,4-dimethylcyclopentanone]
Problem: Smaller flash point value, 1 vs 2 ? State the label of the item chosen.
Solution: 2
(2: 42 °C, 1: 85 °C)
